Values from the RNAGym collection of RNA variant scans (doi:10.1021/acssynbio.7b00057)

B1: Pistol ribozyme (parent)
chain: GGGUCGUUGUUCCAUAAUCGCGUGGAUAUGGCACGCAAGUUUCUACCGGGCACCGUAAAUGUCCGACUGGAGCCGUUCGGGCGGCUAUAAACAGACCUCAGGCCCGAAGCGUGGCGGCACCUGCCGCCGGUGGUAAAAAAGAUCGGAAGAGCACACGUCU

Variants of: B1
assay_protocol: aptazyme ON/OFF ratio, guanine; higher = stronger switching; co-transcriptional cleavage with and without guanine
measurement_label: aptazyme ON/OFF ratio
Answer field: number only, no words.

Some variants with recorded aptazyme ON/OFF ratio:
[[record]]
variant_description = "U7G U8G G9U U11G C12U"
test_result = 1.45

[[record]]
variant_description = "U7G U8G G9A U10A C12U C13A"
test_result = 1.22

[[record]]
variant_description = "U7C U8G G9U U11A C12U C13A"
test_result = 1.43

[[record]]
variant_description = "U7G U8G G9A U10G C12A C13U"
test_result = 1.32

[[record]]
variant_description = "U7G U8G U11C C12A"
test_result = 1.31


aptazyme ON/OFF ratio reported for this variant U7A U8C G9C U10A C12G C13A : 1.1

aptazyme ON/OFF ratio reported for this variant U7A U8A U10G U11A C12G : 1.34

aptazyme ON/OFF ratio reported for this variant U7C U8G G9C U10A U11A C12U C13U : 1.24

aptazyme ON/OFF ratio reported for this variant U7G U8G G9C U10C U11G C12A C13G : 1.31

aptazyme ON/OFF ratio reported for this variant U7A U8A U11C C12A : 1.36
